molecular target: T1, human transferrin receptor (hTfR) (human, UniProt P02786 89-760); experiment: SPR, pH 6.0
T1 construct: a His tag is implied by the NTA chip and the anti-His capture; also called human TfR; TfR1
T1 sequence (P02786 89-760 limits assumed): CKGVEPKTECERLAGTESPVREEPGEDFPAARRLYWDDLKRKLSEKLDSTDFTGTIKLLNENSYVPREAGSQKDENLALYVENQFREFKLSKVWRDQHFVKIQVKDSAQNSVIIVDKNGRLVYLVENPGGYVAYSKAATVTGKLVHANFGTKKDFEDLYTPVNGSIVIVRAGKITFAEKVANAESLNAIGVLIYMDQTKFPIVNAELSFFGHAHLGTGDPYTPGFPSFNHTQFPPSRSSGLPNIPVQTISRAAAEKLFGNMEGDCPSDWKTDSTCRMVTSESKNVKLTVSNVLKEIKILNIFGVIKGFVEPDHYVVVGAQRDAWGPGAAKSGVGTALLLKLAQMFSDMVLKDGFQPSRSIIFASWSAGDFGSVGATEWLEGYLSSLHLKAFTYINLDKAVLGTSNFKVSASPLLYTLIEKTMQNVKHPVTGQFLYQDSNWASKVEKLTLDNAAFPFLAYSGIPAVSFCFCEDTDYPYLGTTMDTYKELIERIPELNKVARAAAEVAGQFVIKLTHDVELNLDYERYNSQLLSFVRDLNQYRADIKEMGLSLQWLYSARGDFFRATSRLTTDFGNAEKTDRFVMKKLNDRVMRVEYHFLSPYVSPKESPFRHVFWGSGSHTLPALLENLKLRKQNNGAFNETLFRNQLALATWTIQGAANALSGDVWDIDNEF
In this section, each of the binders is paired with its reported Kd.
Report only the number, with the unit nM understood.

- BINDER: "AVXVWNYXIIRRYXC (3 MeF; 8 F4aao(PEG8Me); 14 MeY; chloroacetyl-Ala1 cyclised to Cys15; linker G-KN3 after Cys15; terminus -NH2, The linker G-KN3 (Gly, N6-diazo-L-lysine) follows Cys15; whether the listing entry holds these two residues cannot be seen here) [894_3434 (SEQ ID NO: 64)]"
  ENDPOINT UNIT: "nM"
  Kd: 32.3

Shifting focus to the binder that follows.
Provide only the value of recorded Kd for AVXVXNYYIIKRYXC (3 MeF3C; 5 3Imp; 14 MeY; chloroacetyl-Ala1 cyclised to Cys15; linker PEG4c after Cys15; terminus -NH2) [894_0610 (SEQ ID NO: 61)] 7.47
